Values were extracted from patent US7994336B2.

biological target: human orexin-2 receptor (Homo sapiens); test: Intracellular calcium measurements (FLIPR), orexin receptor antagonistic activity; details: CHO cells expressing human orexin-2 receptor; 10 nM orexin-A as agonist; fluo-3 AM calcium signal; read-out: OX2 IC50
Sequence (O43614 whole entry): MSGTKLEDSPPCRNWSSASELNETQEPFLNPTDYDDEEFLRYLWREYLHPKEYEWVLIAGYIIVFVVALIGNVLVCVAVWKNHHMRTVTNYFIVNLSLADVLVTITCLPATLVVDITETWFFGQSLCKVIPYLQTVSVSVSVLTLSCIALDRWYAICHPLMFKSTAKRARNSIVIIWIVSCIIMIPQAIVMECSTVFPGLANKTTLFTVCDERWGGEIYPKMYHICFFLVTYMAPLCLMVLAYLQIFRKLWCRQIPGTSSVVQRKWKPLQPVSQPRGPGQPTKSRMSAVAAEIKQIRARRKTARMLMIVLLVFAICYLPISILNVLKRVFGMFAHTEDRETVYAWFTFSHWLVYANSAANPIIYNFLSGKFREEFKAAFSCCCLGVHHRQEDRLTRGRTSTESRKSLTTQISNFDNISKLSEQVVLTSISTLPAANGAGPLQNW
measure: log10(IC50) (log10 of the value in nM)
Annotation: log10 of IC50, nM basis.

Some molecules with recorded log10(IC50):
Tell me the measured log10(IC50) of Cc1cccc(-c2sc(C)nc2C(=O)N2CC[C@H]2CNC(=O)c2c(Cl)nc3sccn23)c1 [Example 21] , please.
0.85

Proceed to Cc1cccc(-c2sc(C)nc2C(=O)N2CCC2CNC(=O)c2c(C(F)(F)F)nc3sccn23)c1 (racemic) [Example 50]
1.76

Please do the same for Cc1nc(C(=O)N2CCC2CNC(=O)c2c(C)nc3sccn23)c(-c2ccc(F)c(F)c2)s1 (centres unmarked) [Example 67] as well.
2.01

***
Quick one: log10(IC50) of COc1ccc(-c2sc(C)nc2C(=O)N2CCC2CNC(=O)c2c(C)nc3sccn23)cc1 (centres unmarked) [Example 28] ?
1.04

And then Cc1cccc(-c2sc(N)nc2C(=O)N2CC[C@H]2CNC(=O)c2c(Cl)nc3sccn23)c1 [Example 22] , what is it?
0.70

Proceed to Cc1cccc(-c2sc(C)nc2C(=O)N2CCC2CNC(=O)c2cnc3scc(C)n23)c1 (racemic) [Example 61]
1.63

How about this molecule: Cc1ccc(-c2ccccc2C(=O)N2CC[C@H]2CNC(=O)c2cccc3occc23)cc1C [Example 15]
1.04

Could you do the same for Cc1cccc(-c2sc(C)nc2C(=O)N2CCC2CNC(=O)c2cccc3c2OCCC3)c1 (racemic) [Example 57] , please?
1.28

----------
target: human orexin-1 receptor (Homo sapiens); assay: Intracellular calcium measurements (FLIPR), orexin receptor antagonistic activity; settings: CHO cells expressing human orexin-1 receptor; 10 nM orexin-A as agonist; fluo-3 AM calcium signal; read-out: OX1 IC50
Sequence (O43613 whole entry): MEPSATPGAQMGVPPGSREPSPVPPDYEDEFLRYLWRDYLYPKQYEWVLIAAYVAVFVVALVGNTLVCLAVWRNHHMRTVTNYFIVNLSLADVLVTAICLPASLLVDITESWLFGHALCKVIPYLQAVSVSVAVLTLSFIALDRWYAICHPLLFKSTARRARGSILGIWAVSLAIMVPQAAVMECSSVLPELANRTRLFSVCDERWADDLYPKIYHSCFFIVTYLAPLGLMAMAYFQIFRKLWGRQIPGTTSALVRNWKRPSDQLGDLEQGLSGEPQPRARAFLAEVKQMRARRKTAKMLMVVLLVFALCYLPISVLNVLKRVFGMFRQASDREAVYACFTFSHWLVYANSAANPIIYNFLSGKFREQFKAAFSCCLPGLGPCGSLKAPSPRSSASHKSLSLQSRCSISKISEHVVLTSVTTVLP
Each record is given MET if its reported IC50 is strictly below 90 nM. Records at or above 90 nM are given NOT MET.

Answer whether the molecule Cc1cccc(-c2sc(C)nc2C(=O)N2CCC2CNC(=O)c2nc3scc(C)n3c2C)c1 (racemic) [Example 40] has IC50 strictly less than 90 nM
MET

---
Say whether its IC50 is strictly beneath 90 nM. Entry: Cc1nc(C(=O)N2CCC2CNC(=O)c2c(C)nc3sccn23)c(-c2cccc(F)c2)s1 (stereo not drawn) [Example 11]
NOT MET

Moving on to Cc1ccc(-c2ccccc2C(=O)N2CC[C@H]2CNC(=O)c2cccc3occc23)cc1C [Example 15]
MET

Again, but for Cc1nc(C(=O)N2CCC2CNC(=O)c2c(C)nc3sccn23)c(-c2ccc(Cl)c(Cl)c2)s1 (racemic) [Example 32]
MET

Similarly, Cc1cccc(-c2sc(C)nc2C(=O)N2CC[C@H]2CNC(=O)c2c(Cl)nc3sccn23)c1 [Example 21] ?
MET

Next up: Cc1cccc(-c2sc(C)nc2C(=O)N2CCC2CNC(=O)c2cccc3c2OCCC3)c1 (racemic) [Example 57]
NOT MET

Same read-out for Cc1cccc(-c2sc(C)nc2C(=O)N2CCC2CNC(=O)c2cnc3scc(C)n23)c1 (racemic) [Example 61] ?
NOT MET

How about Cc1cccc(-c2sc(C)nc2C(=O)N2CCC2CNC(=O)c2c(C(F)(F)F)nc3sccn23)c1 (racemic) [Example 50] ?
NOT MET

Could you do the same for Cc1cccc(-c2sc(C)nc2C(=O)N2CCC2CNC(=O)c2cccc3c2OCCN3C)c1 (racemic) [Example 54] , please?
NOT MET

Here is the next molecule: Cc1cccc(-c2oc(C)nc2C(=O)N2CCC2CNC(=O)c2c(C)nc3sccn23)c1 (stereo not drawn) [Example 83]
NOT MET

Param item: Cc1cccc(-c2sc(N)nc2C(=O)N2CC[C@H]2CNC(=O)c2c(Cl)nc3sccn23)c1 [Example 22]
MET

And for Cc1cccc(-c2sc(C)nc2C(=O)N2CCC2CNC(=O)c2nc3sccn3c2C)c1 (racemic) [Example 42] ?
MET

Also need Cc1nc(C(=O)N2CCC2CNC(=O)c2c(C)nc3sccn23)c(-c2ccc(F)c(F)c2)s1 (stereo not drawn) [Example 67] , thanks.
NOT MET
